- Test system: MCF-7 cells
- test_summary: colony assay of Example 1 with human breast carcinoma MCF-7 cell line
- Assay type: cell-based
- study_conditions: CV-1/MCF-7
- Description: The control received culture media only.
Outcome: True for Selectivity of at least 200; False for anything lower.

# compound, assigned_category
records = [
    ("CCn1c(=C2CCC[n+]3c2sc2ccccc23)sc(=C2Sc3ccccc3N2C)c1=O", "True"),
    ("CCn1c(=Cc2sc3ccccc3[n+]2CC)sc(=C2Sc3ccccc3N2C)c1=O [Compound 2]", "False"),
    ("CCn1c(=Cc2oc3ccc4ccccc4c3[n+]2CC)sc(=C2Sc3ccccc3N2C)c1=O", "False"),
]

Note: attention shifts to another entry.
API: above_or_equal(metric=Selectivity, cutoff=200) for item `CCn1c(=Cc2oc3c4ccccc4ccc3[n+]2CC)sc(=C2Sc3ccc4ccccc4c3N2C)c1=O`
True
